# MEASUREMENT_DESCRIPTION: Millimolar relaxivity r1p from T1 measurements in water, HSA 4% and human plasma (0.47T/20 MHz, 25° C.)
# Assay type: physicochemical
# SETUP_CONDITIONS: HSA 4%
READOUT_TYPE: r1p (mM⁻¹ s⁻¹)

The molecule CCCCCCN(CCCCCC)C(=O)CCCCC1(N(CC(=O)[O-])CC(=O)[O-])CN(CC(=O)[O-])CCN(CC(=O)[O-])C1.[Gd+3].[Na+] [Compound 12b] showed r1p equal to 31.5

(1) CCCCCCCCCCCC(=O)OC[C@H](COP(=O)(O)OCCNC(=O)CCCCC1(N(CC(=O)[O-])CC(=O)[O-])CN(CC(=O)[O-])CCN(CC(=O)[O-])C1)OC(=O)CCCCCCCCCCC.[Gd+3].[Na+] [Compound 9b]
(2) CCCCCCCCN(CCCCCCCC)C(=O)CCCCC1(N(CC(=O)[O-])CC(=O)[O-])CN(CC(=O)[O-])CCN(CC(=O)[O-])C1.[Gd+3].[Na+] [Compound 12c]
Dear colleague, could you let me know whether 1 or 2 has the lower recorded r1p? Thanks. Reply briefly: the label of your chosen item.
1
